Every entry's value here was drawn from patent US20220204611A1.

Biological target: T1, recombinant soluble human TREM2 protein (human TREM2 ECD-FlagHis) (human, UniProt Q9NZC2 19-174)
T1 sequence: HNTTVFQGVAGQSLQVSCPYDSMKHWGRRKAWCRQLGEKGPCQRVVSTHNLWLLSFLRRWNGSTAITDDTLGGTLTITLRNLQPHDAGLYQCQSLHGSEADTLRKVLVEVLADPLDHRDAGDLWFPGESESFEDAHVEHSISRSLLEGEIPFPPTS
Test: Octet BLI, antibody on anti-human Fc sensor, 25 C
I'd be grateful if you could share measured Kd for these entries.
Output spec: scalar in nM, unitless text.

query: Recorded Kd for 4G10 (antibody, human IgG2, V domains shown, human IgG2 from hybridoma) VH: EVQLVQSGAEVKKPGESLKISCKGSGYSFPSYWIAWVRQMPGKGLEWMGIIYPGDSDTRYSPSFQGQVTISADKSISTAFLKWSSLKASDTAMYFCARQGIEVTGTGGLDVWGQGTTVTVSS VL: DIQMTQSPSSLSASVGDRVTITCRASQGIRNDLGWYQQKPGNAPKRLIYAASSLPSGVPSRFSGSGSGPEFTLTISSLQPEDFATYYCLQHNSYPWTFGQGTKVEIT , please?
result: 3.3

query: Can you check 6E7 (antibody, human IgG2, V domains shown, human IgG2 from hybridoma) VH: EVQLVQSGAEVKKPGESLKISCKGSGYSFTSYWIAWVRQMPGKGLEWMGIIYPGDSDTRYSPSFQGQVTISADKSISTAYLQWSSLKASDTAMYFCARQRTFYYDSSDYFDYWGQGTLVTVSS VL: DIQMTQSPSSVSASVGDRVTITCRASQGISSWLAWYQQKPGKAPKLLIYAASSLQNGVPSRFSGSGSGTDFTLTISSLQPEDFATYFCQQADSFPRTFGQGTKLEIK next?
result: 2.6

query: Can you check 10E3 (antibody, human IgG2, V domains shown, human IgG2 from hybridoma) VH: EVQLVQSGAEVKKPGESLMISCKGSGYSFTNYWIGWVRQMPGKGLEWMGIIYPGDSDTRYSPSFQGQVTISADKSISTAYLQWSSLKASDTAMYFCARRRQGIWGDALDIWGQGTLVTVSS VL: EIVMTQSPATLSVSPGERATLSCRASQSVSSNLAWFQQKPGQAPRLLIYGASTRATGIPARFSVSGSGTEFTLTISSLQSEDFAFYYCLQDNNWPPTFGPGTKVDIK next?
result: 10.3
